- EXPERIMENTAL_TARGET: THR alpha (Homo sapiens)
- Construct: expressed in transfected cells; host or cells: HEK293T (ATCC CRL-3216)
- Sequence (P10827 1-410 isoform P10827-2): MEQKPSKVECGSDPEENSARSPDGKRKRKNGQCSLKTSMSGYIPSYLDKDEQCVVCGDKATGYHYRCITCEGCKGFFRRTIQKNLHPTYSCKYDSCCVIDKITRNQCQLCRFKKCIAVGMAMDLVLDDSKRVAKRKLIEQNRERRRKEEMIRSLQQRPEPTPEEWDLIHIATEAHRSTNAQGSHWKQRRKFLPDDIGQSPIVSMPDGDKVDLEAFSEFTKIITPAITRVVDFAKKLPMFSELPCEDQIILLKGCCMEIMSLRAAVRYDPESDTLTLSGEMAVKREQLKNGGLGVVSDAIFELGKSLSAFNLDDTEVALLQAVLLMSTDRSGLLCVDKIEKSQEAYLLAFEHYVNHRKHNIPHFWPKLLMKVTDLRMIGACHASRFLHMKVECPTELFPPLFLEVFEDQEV
- Sequence (P19793 whole entry partner): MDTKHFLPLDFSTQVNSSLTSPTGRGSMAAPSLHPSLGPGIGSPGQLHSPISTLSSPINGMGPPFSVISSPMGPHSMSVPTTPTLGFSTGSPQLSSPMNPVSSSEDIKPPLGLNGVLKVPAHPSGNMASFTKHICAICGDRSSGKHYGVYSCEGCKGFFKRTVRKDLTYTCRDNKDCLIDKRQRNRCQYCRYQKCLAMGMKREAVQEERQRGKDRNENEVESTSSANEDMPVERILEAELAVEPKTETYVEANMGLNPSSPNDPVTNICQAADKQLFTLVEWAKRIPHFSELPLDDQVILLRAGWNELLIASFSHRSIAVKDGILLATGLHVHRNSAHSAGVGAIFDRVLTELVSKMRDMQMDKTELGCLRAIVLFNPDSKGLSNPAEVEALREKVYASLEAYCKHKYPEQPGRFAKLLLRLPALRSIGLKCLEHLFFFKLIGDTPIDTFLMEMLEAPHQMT
- TEST: HEK293T THR alpha/RXR luciferase reporter assay (Assay 2)
- Format: cell-based
- RUN_PARAMETERS: HEK-293T, Table 5; Assay 2; THRα; read-out: Activity category Assay 2 THRα (Emax)
MEASURED_PROPERTY: Emax

COMPOUND_STRUCTURE | RESULT
Cc1cc(-n2nc(N)c(=O)[nH]c2=O)cc(C)c1Cc1ccc2c(c1)C1(CCCC1)C(=O)N2 | 50 to 75%
CC(C)c1cc(Cc2c(Cl)cc(-n3nc(N)c(=O)[nH]c3=O)cc2Cl)n[nH]c1=O | < 50%
Cc1cc(-c2cc(Oc3c(Cl)cc(-n4nc(N)c(=O)[nH]c4=O)cc3Cl)n[nH]c2=O)ccc1Cl | < 50%

## Task Could you share which Emax value was measured for "Cc1cccc(-c2cc(Oc3c(Cl)cc(-n4nc(N)c(=O)[nH]c4=O)cc3Cl)n[nH]c2=O)c1F" ?
## Result < 50%

* * *

pEC50 listing for selected compounds.
- EXPERIMENTAL_TARGET: human thyroid receptor alpha ligand-binding domain (LBD) (Homo sapiens, UniProt P10827)
- TEST: TR-FRET thyroid receptor alpha coactivator assay (THR biochemical assay, Assay 1)
- RUN_PARAMETERS: Table 4, THR-alpha, read-out: Activity category Assay 1 (EC50, THR-alpha agonist activity)
pEC50: −log10 of the molar value.

Below, each entry is followed by its recorded pEC50 result.
COMPOUND | MEASURED_PROPERTY | RESULT
Nc1nn(-c2cc(Cl)c(Oc3cc(-c4ccc5nnccc5c4)c(=O)[nH]n3)c(Cl)c2)c(=O)[nH]c1=O | pEC50 | < 4.60
O=c1cnn(-c2cc(Cl)c(Oc3cc(-c4ccc5c(c4)CCCC5)c(=O)[nH]n3)c(Cl)c2)c(=O)[nH]1 | pEC50 | 4.60 to 6.00
O=c1cc(-c2ccc3ccccc3c2)c(Oc2c(Cl)cc(-n3ncc(=O)[nH]c3=O)cc2Cl)n[nH]1 | pEC50 | 4.60 to 6.00
Nc1nn(-c2cc(Cl)c(Oc3cc(C4CC5(CCC5)C4)c(=O)[nH]n3)c(Cl)c2)c(=O)[nH]c1=O | pEC50 | 6.00 to 6.60
CC1(C)CC(c2cc(Oc3c(Cl)cc(-n4nc(N)c(=O)[nH]c4=O)cc3Cl)n[nH]c2=O)CCO1 (centres unmarked) | pEC50 | < 4.60

## Task Could you share which pEC50 value was measured for Nc1nn(-c2cc(Cl)c(Oc3cc(C4Cc5ccccc54)c(=O)[nH]n3)c(Cl)c2)c(=O)[nH]c1=O (single isomer, unassigned) [Compound 166] ?
## Result < 4.60

## Task Could you share which pEC50 value was measured for "Nc1nn(-c2cc(Cl)c(Oc3cc(C4CCCCC4)c(=O)[nH]n3)c(Cl)c2)c(=O)[nH]c1=O" ?
## Result 6.00 to 6.60

## Task Could you share which pEC50 value was measured for "Cc1c(-n2nc(N)c(=O)[nH]c2=O)cc(Cl)c(Oc2cc(C(C)C)c(=O)[nH]n2)c1Cl" ?
## Result 4.60 to 6.00

## Task Could you share which pEC50 value was measured for Nc1nn(-c2cc(Cl)c(Oc3cc(C4Cc5ccccc54)c(=O)[nH]n3)c(Cl)c2)c(=O)[nH]c1=O (centres unmarked) [Compound 158] ?
## Result 6.00 to 6.60

## Task Could you share which pEC50 value was measured for "Cc1cc(-n2nc(C#N)c(=O)[nH]c2=O)cc(C)c1Cc1ccc2c(c1)C1(CCC1)C(=O)N2" ?
## Result > 7.30

## Task Could you share which pEC50 value was measured for "Nc1nn(-c2cc(Cl)c(Oc3cc(C4(c5ccccc5)CC4)c(=O)[nH]n3)c(Cl)c2)c(=O)[nH]c1=O" ?
## Result 4.60 to 6.00

## Task Could you share which pEC50 value was measured for "Cc1cc(-c2cc(Oc3c(Cl)cc(-n4nc(N)c(=O)[nH]c4=O)cc3Cl)n[nH]c2=O)ccc1Cl" ?
## Result < 4.60
